Experiment: clinical
Conditions: human, plasma, oral, AUC0‐t, Combination (period 3): SPN‐812 700 mg + paroxetine 20 mg QD, mean ± SD
measurement-name: AUC (µg·h/mL)

1. CCOc1ccccc1OCC1CNCCO1 (stereo not shown) : 112

----------
Experiment: clinical
Conditions: human, plasma, oral, 700 mg
measurement-name: half-life (h)

1) CCOc1ccccc1OCC1CNCCO1 (stereo not shown) : 5.2

----------
Assay: Steady-state plasma pharmacokinetics of paroxetine, healthy adults
Format: in vivo, human
Details: human, plasma, oral, 20 mg
measurement-name: Tmax (h)

1) Fc1ccc([C@@H]2CCNC[C@H]2COc2ccc3c(c2)OCO3)cc1 [Paroxetine, paroxetine] : 6

Entry source: paper PMC8597116
